Test system: K4 kissing-loop RNA reporter
Assay overview: apparent KD of K4 kissing-loop reporter; higher = weaker reporter binding
Stated conditions: Eterna round: R107; input ligand: theophylline 20 uM
Parameter measured: apparent KD of K4 kissing-loop reporter (nM)
Expressed in nM, but write only the number.

Q: State its apparent KD of K4 kissing-loop reporter on K4 kissing-loop RNA reporter: ACGCAUGGGCAAGGAUAUGGUAGUGAUGUUACCUUUGCGGUGCCGGGAACGAAUGACGGUCAUGCGCCAGAAGGUGCUCAGACAA [theeternabot_exclusion_KL_FMN_B_23]
Result: 250

Q: Give recorded apparent KD of K4 kissing-loop reporter with K4 kissing-loop RNA reporter for the following sequence: GUAGCACUUGACAGUGAUGUUGUCAAGGGCAAGGAUAUCACCUCAGUGAGAAGGUGUCCUUGAUAACUGCUACGGGAAUAUCCCA [Omei KL FMN A Exc D v7]
Result: 156

Q: Item UAGAUAAUGUAAGAUUAUGAUAAUUGGGAAGGAGCGCGGAAAUUCGCAGGUAGGUCGCCCUAUAAAGUAGUACGAGUGAUGUUCG [6.)] with K4 kissing-loop RNA reporter - apparent KD of K4 kissing-loop reporter?
Result: 305

Q: What measured apparent KD of K4 kissing-loop reporter is associated with UGACUGGAUGGAAGGAGCGCUAAACUCCUAGUGAUGUUAGGGAUAUGAGGCAAAGCCUUGAAGCAGGUAGGUCGCCAUCUAGUCU [FiskerMod 26 - Jieux - Same State - Arginine B] on K4 kissing-loop RNA reporter?
Result: 146

Q: Lab note: need apparent KD of K4 kissing-loop reporter with K4 kissing-loop RNA reporter for entry AGAGUUUUAUGAGGAUAUGAGAUAGUUAAUGAGUGAGUUAUAGUGUAGUUUGUUUAGUGAUGUUAUUUAGAAGGCGUGAGUGAUG [ssxsmullin] , please look it up.
Result: 132

Q: Form entry - test system: K4 kissing-loop RNA reporter; read-out: apparent KD of K4 kissing-loop reporter; sequence: AAUACCUGAGUGAUGUUCAGGGAAUCAGAAGGAGCGUCAAUUAUGACAGGUAGGUCGCUGAAUACAUGUGUGUAUACACAUGUAC [Arg A SS t4];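 note: bound reporter read as fluorescence of individual clusters on recovered sequencing chips by microscopy, with normalized cluster intensities fitted with a binding model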
Result: 243

---

Test system: MS2 coat protein
Assay overview: apparent KD of MS2 coat protein; higher = weaker reporter binding
Stated conditions: Eterna round: R107; input ligand: arginine 13.2 mM
Record form. Attribute: apparent KD of MS2 coat protein. Fill in for each entry.
Report only the number, with the unit nM understood.

Q: Suppose we examine the sequence AUAACAUGAGGAUCACCCAUGUAACCUGAAGGAGCGGACGAAAGUCCAGGUAGGUCGCAGGACUCCUUCAACAUGGGAGAGGGAG [SSArg-A #27 NuPack the Brourd] ; what apparent KD of MS2 coat protein value has been reported?
Result: 120

Q: Query (sequence): GUGACUUACGGGCGCCAUUUGUAAUAGGAAGGAGCGGCGAAAUAGCCAGGUAGGUCGCCUAUACAUGAGGAUCACCCAUGUCACC [Esatbileor] ; field requested: apparent KD of MS2 coat protein
Result: 46.9

Q: apparent KD of MS2 coat protein lookup needed for GGGUGGUAGGCGGCCGCCACUGAUUUUCAUAUAUAUAUAACAUGAGGAUCACCCAUGUAGAUAUGCAGGACCGGGCCUGUUGUUU [aaaL] , thanks.
Result: 26.6

Q: Need apparent KD of MS2 coat protein, item AAGACAUGAGGAUCACCCAUGUGUCAUGAAGGAGCGUCGGAAAUGACAGGUAGGUCGCAUGACCGUUGGCGCCGGAAACGGCGCA [SSAA #15]
Result: 23.8

Q: Could you tell me which apparent KD of MS2 coat protein is on file for AUUUACAUGGUCAUAUAUAUAUCGUCAGAUACCAGACUAGAUAUUGUCCCUUGGCAGCUGUUACAUGAGGAUCACCCAUGUUAUA [JR_Nu_ExcTheophyA_Sub020] ?
Result: 54.5

Q: Fill in: apparent KD of MS2 coat protein of CGCACAUGAGGAUCACCCAUGUGAGGGCGGCGAGGACCGGUACGGCCGCCACUCGCAGGACAUGAGGAUCACCCAUGUGCCGCCG [SSTA DOUBLE!!! :-D] is ___
Result: 32.5

Q: Item under review: AAUGAACAUGAGGAUCACCCAUGUCGUGAUACCAGCCGUAAGAGUGGCCCUUGGCAGCGCCAUGAGGACAACAACAUACAUGAGG [Same State Theophylline A] . Reported apparent KD of MS2 coat protein?
Result: 22.9

Q: // lookup apparent KD of MS2 coat protein for "GGACUAACCAGAAGGAGCGAUACGCAGAAACUGCAAUUUCCUCUACACGAGGAUCACCCGUGUCAGGUAGGUCGCUGGUUAGUCG"
Result: 25.2

Q: Sample UGUCAUGGAAACAUGACAGGUCUUACCGGUCGAGGACCGGUACGGCCGCCACUCGAUUGGUGGCACAUGAGGAUCACCCAUGUUA [SS Tryp A #16] — what was its apparent KD of MS2 coat protein?
Result: 21.8

Q: Report apparent KD of MS2 coat protein for "GGACUAACCAGAAGGAGCGACACGCAGAAACUGCAAUUUCCUCUACACGAGGAUCACCCGUGUCAGGUAGGUCGCUGGUUAGUCG" please.
Result: 50

Q: Param item = GUAAGAGUAGGAAGGAGCGCUUUACAUGAGGAUCACCCAUGUGUGCCCUCAAUUUCGGUAAAGCAGGUAGGUCGCCUAAACUUGC [Tiqurabi] ; retrieve measured apparent KD of MS2 coat protein.
Result: 31.2

Q: Would you kindly share the measured apparent KD of MS2 coat protein for ACAUGAGGAUCACCCAUGUGUGUAAGUUCUCGAGGACCGGUACGGCCGCCACUCGAACGAGUGUAACGUUAUACUUAGUAUAAUG [SS Trp A s4] ?
Result: 22.6

Q: Could you share which apparent KD of MS2 coat protein value was measured for GUACGAGUUGACUGUGAGACUGGCGUGGAAGGAGCGCACGGAGGUGCAGGUAGGUCGCCACAUGAGGAUCACCCAUGUCGGGCCG [Qutigeveat] ?
Result: 19.3
